- measured_target: Fibroblast growth factor 2 (Homo sapiens)
- experiment_description: FGF2 binders on small-molecule microarrays, primary screen, biochemical, small-molecule microarray, 635/667 nm fluorescence (AID 1133)
- condition_context: small-molecule microarray binding, FGF2, fluorescence 635/667; higher = more signal
Quick rule for you: composite z-score at 0.6 or higher means criterion met, lower means criterion not met.

Previously resolved entries follow.
molecule	class_name
CN1C(=O)C2C=CC(C(O)c3ccc(I)cc3)N(N3CCCCC3)C2C1=O (stereo not drawn)	criterion not met
COCCCNC(=O)C1N=C(c2ccc(OCCCO)cc2)N(c2ccccc2)O1 (stereo not drawn)	criterion not met
O=C1NC(=O)C2C1C=CC(C(O)c1cccc3ccccc13)N2Nc1ccccn1 (stereo not drawn)	criterion not met
O=C1O[C@@H](c2ccccc2)[C@@H](c2ccccc2)N2[C@@H](c3ccc(OCCO)cc3)[C@]3(C(=O)Nc4ccccc43)[C@@H](C(=O)NC[C@H](O)c3ccccc3)[C@H]12	criterion met
O=C1O[C@@H](c2ccccc2)[C@@H](c2ccccc2)N2[C@@H](c3ccccc3OCCO)[C@]3(C(=O)Nc4ccc(C#CC5=CCCCC5)cc43)[C@@H](C(=O)Nc3nc4ccccc4s3)[C@H]12	criterion met
CC(C)(C)OC(=O)CC[C@@]1(C(N)=O)N=C(c2ccc(OCCCO)cc2)O[C@@H]1c1ccccc1	criterion not met

Attention now shifts to the item below.
(Q) Reported composite z-score at or above 0.6? O=C1C2C=CC(C(O)C3CCCCC3)N(Nc3ccc([N+](=O)[O-])cc3)C2C(=O)N1c1ccccc1 (stereo not drawn)
(A) criterion not met

---

- measured_target: Streptavidin (Streptomyces avidinii)
- experiment_description: streptavidin binders on small-molecule microarray, primary screen, artefact control for SMM compound annotation, biophysical, 635/667 nm fluorescence (AID 1147);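 note: signal reflects streptavidin binding to arrayed compounds as a control protein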
- condition_context: streptavidin binding, higher = more signal
measured_quantity: composite z-score

Field: example entries. Status: answers known.
compound	composite z-score
[N-]=[N+]=NCc1ccccc1C[C@]1(C(=O)NCC(O)CO)N=C(c2ccc(OCCCO)cc2)O[C@H]1c1ccccc1 (some centres not stated)	0.236
C=CCOC(=O)[C@H]1[C@@H]2C(=O)O[C@@H](c3ccccc3)[C@@H](c3ccccc3)N2[C@@H](c2ccc(OCCOC(=O)[C@H]3C[C@H]4C(=O)N5CCC[C@H]5C(=O)N4[C@H]3c3ccc(O)cc3)cc2)[C@]12C(=O)Nc1ccccc12	0.116
CC(C)C[C@H]1NC(=O)[C@@]23C(=O)N[C@@H](Cc4ccccc4)C2[C@H](C)[C@@]2(C)O[C@H]2C3/C=C/C/C=C\CNC(=O)[C@H](Cc2ccccc2)NC1=O (some centres not stated)	-0.279

Please give composite z-score for each item listed below.
1. CN(C)CCCNC(=O)[C@@]1(c2ccc([N+](=O)[O-])cc2)CC(=O)N(C2CCCCC2)[C@@H]1c1ccc(CO)cc1
2. CN1C(=O)C2C=CC(C(O)c3ccc(-c4ccccc4)s3)N(N(c3ccccc3)c3ccccc3)C2C1=O (configuration not stated)
3. CN(C)CCCNC(=O)[C@@]1(c2ccc([N+](=O)[O-])cc2)CC(=O)N(C2CCCCC2)[C@@H]1c1ccc(CO)cc1I
4. C=CCOC(=O)[C@H]1[C@@H]2C(=O)O[C@@H](c3ccccc3)[C@@H](c3ccccc3)N2[C@@H](c2ccc(OCCOC(=O)[C@@H]3C[C@@H]4C(=O)N[C@@H](CCCCN(C)C)C(=O)N4[C@@H]3c3ccc(O)cc3)cc2)[C@]12C(=O)Nc1ccc(I)cc12

(A)
1: 0.494; 2: 1.14; 3: 0.71; 4: 0.218
